Source: ChEMBL document CHEMBL4196036

biological target: G_PROTEIN_RECEP_F1_2 domain-containing protein (Macaca mulatta, UniProt F7HEV7)
Sequence (F7HEV7 whole entry): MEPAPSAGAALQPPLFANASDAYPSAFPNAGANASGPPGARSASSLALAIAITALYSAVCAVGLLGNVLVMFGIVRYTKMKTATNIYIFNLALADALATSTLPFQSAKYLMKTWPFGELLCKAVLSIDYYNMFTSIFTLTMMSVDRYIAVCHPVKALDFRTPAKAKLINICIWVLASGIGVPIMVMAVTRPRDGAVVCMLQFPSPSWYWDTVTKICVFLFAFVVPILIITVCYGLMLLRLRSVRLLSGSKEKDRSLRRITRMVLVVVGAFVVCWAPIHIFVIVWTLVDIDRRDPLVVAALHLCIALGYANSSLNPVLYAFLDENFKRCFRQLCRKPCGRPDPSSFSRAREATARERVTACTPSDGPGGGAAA
pKi: −log10 of the molar value.
Mark -1 for pKi values under 8, and 1 for everything at or above.

Example cases with answers are listed next.
INSERT INTO assay_data (line_notation, discrete_label) VALUES
  ('C=CCN1CC[C@]2(C)c3cc(O)ccc3C[C@@H]1[C@@H]2C', 1),
  ('C[C@H]1[C@H]2Cc3ccc(O)cc3[C@@]1(C)CCN2CCC#N', 1),
  ('C=CCCN1CC[C@]2(C)c3cc(O)ccc3C[C@@H]1[C@@H]2C', -1);

# next compound below
Identify whether the reported pKi of the following compound is 8 or greater: `C[C@H]1[C@H]2Cc3ccc(O)cc3[C@@]1(C)CCN2CCCC#N` 1

====

List of pKi values.
target: Delta-type opioid receptor (Homo sapiens); assay: Displacement of [3H]naltrindole from DOR (unknown origin) expressed in CHO cell membranes
Sequence (P41143 whole entry): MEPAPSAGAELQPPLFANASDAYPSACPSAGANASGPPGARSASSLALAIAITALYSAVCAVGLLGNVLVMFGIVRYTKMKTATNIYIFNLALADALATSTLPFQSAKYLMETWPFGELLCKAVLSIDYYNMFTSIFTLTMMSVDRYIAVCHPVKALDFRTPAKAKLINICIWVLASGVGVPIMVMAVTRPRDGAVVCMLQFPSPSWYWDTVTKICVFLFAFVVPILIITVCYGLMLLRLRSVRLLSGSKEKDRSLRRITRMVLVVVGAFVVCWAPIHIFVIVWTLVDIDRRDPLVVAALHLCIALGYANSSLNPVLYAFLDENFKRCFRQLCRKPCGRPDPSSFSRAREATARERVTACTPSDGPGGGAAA
Lab note — pKi values are minus log10 of concentrations in M.

INSERT INTO assay_data (line_notation, assay_target, measured_parameter, reported) VALUES
  ('C[C@H]1[C@H]2Cc3cc4sc(N)nc4cc3[C@@]1(C)CCN2CC1CCC1', 'Delta-type opioid receptor (Homo sapiens)', 'pKi', 7.03);

Please indicate pKi recorded for `C[C@H]1[C@H]2Cc3cc4sc(N)nc4cc3[C@@]1(C)CCN2CC1CC1` 6.03
